Hello, the source for this data is patent US20220031857A1, in case you need it.

koff: recorded values
molecular target: T1, recombinant human TfR1 (transferrin receptor 1) (human, UniProt P02786 89-760); experiment: SPR (Biacore), single-cycle kinetics, His-tagged TfR1 captured, VNAR-Fc injected
T1 construct: Bought recombinant His-tagged protein; also called hTfR1
T1 sequence (P02786 89-760 limits assumed): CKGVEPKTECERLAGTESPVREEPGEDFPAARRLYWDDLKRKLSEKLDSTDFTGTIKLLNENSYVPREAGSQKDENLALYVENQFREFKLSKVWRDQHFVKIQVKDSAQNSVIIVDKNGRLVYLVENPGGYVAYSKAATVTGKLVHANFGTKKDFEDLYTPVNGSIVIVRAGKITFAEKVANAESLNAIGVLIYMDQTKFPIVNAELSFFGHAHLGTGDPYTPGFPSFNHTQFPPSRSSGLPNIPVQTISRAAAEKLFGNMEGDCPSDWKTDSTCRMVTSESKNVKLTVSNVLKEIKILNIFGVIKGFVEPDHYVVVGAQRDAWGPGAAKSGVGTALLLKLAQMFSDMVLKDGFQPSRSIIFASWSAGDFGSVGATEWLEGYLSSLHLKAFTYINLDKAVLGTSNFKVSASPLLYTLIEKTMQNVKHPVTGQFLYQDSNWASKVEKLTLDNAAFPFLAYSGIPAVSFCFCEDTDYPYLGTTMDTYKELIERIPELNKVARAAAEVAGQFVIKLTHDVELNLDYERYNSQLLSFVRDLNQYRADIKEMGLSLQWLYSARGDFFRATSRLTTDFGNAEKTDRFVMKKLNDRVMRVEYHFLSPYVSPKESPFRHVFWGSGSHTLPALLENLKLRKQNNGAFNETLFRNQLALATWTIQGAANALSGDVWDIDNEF
Could you give me the number in s⁻¹? Just the number is fine.

Record excerpt, results attached:
Clone 1 VNAR-Fc fusion protein (Fc fusion, Bivalent VNAR-Fc; also called clone 1-Fc; not shown: glycine/serine linker (GxSx)n extending the hinge; human IgG1 Fc (hinge, CH2, CH3) of pFUSE-hIgG1e3-Fc2; G236 also deleted) ARVDQTPQTITKETGESLTINCVLRDNNCALSTTYWYRKKSGSTNEENISKGGRYVETVNSGSKSFSLKINDLTVEDSGTYRCNVRDVQACGNDWVWLDVYGGGTVVTVNA; 0.000123
Clone 2 VNAR-Fc fusion protein (Fc fusion, Bivalent VNAR-Fc; not shown: glycine/serine linker (GxSx)n extending the hinge; human IgG1 Fc (hinge, CH2, CH3) of pFUSE-hIgG1e3-Fc2; G236 also deleted) ARVDQTPQTITKETGESLTINCVLRDNNCALSTTYWYRKKSGSTNEENISKGGRYVETVNSGSKSFSLKINDLTVEDSGTYRCNVFGVDNGWWCDVYGGGTVVTVNA; 0.000445
Clone 10 VNAR-Fc fusion protein (Fc fusion, Bivalent VNAR-Fc; also called clone 10-Fc; Clone 10-hFc; not shown: glycine/serine linker (GxSx)n extending the hinge; human IgG1 Fc (hinge, CH2, CH3) of pFUSE-hIgG1e3-Fc2; G236 also deleted) ARVDQTPQTITKETGESLTINCVLRDSNCALSSTYWYRKKSGSTNEENISKGGRYVETVNSGSKSFSLRINDLTVEDSGTYRCNVVQYPSYNNYFWCDVYGDGTAVTVNA; 0.00016

Turning to the following binder.
(Q) // koff lookup, key: Clone 39 VNAR-Fc fusion protein (Fc fusion, Bivalent VNAR-Fc; not shown: glycine/serine linker (GxSx)n extending the hinge; human IgG1 Fc (hinge, CH2, CH3) of pFUSE-hIgG1e3-Fc2; G236 also deleted) ARVDQTPQTITKETGESLTINCVLRDSNCALSSTLWYRTKSGSRNEESISKGGRYVETVNSGSKSFSLKINDLTVEDSGTYRCNVQGMVYDGSSFWWCDVYGDSTAVTVNA
(A) 0.000684
